B1: TPR t1 (parent)
chain: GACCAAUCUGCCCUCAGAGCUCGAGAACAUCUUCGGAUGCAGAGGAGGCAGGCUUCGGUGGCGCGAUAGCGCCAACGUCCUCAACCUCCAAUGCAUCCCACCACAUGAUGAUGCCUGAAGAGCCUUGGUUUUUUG

variants of: B1; assay: polymerase ribozyme fitness, log enrichment relative to wild type (log ratio); higher = more active; in vitro selection for triplet polymerase activity
Classification field: MET = polymerase ribozyme fitness (log ratio) at or over -3; NOT MET = polymerase ribozyme fitness (log ratio) under -3.

Before answering, review these 3 worked examples.
mutation.name	label.class
C34G U125A	NOT MET
C4A A46U C53G U130C	MET
C85G A90U G127C U133A	NOT MET

[Q] Entry U92A U116C : is its polymerase ribozyme fitness (log ratio) no less than -3?
[A] NOT MET

[Q] Tell me whether polymerase ribozyme fitness (log ratio) is at least -3 here: C22G G93C A103G G110U
[A] NOT MET

[Q] Could you verify whether the entry C15U G48A shows polymerase ribozyme fitness (log ratio) of no less than -3?
[A] MET

[Q] Decide: is the reported value of polymerase ribozyme fitness (log ratio) for G60C U130A equal to or greater than -3?
[A] MET

[Q] Reported polymerase ribozyme fitness (log ratio) at or above -3? A50U C94U
[A] MET

The reported measurements were obtained from the RNAGym collection of RNA variant scans (doi:10.1073/pnas.2313332121).
